B1: library; numbered along this chain (parent)
chain: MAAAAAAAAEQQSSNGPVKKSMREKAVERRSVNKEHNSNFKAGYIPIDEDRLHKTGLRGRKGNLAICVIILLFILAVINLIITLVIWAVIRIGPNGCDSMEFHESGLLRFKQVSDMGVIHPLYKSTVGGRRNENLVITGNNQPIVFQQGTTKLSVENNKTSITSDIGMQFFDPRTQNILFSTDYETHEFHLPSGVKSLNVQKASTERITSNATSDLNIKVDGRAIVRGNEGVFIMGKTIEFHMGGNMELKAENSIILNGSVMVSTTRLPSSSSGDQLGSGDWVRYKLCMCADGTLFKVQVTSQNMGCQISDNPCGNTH

variants of: B1; test: SGCB cell-surface expression functional score (HA stain, bin4 vs bin1, normalised to synonymous) (log10 ratio); higher = more cell-surface SGCB (functional)
readout: SGCB cell-surface expression functional score (log10)
Give your answer as a number; write no unit.

Entry R58V has what SGCB cell-surface expression functional score (log10)? -0.04

Entry D292S has what SGCB cell-surface expression functional score (log10)? -0.12

Entry L287W has what SGCB cell-surface expression functional score (log10)? -1.34

Entry N132P has what SGCB cell-surface expression functional score (log10)? -1.06

Entry E10H has what SGCB cell-surface expression functional score (log10)? 0.08

Entry N312M has what SGCB cell-surface expression functional score (log10)? 0.01

Entry A3N has what SGCB cell-surface expression functional score (log10)? 0.29

Entry I234W has what SGCB cell-surface expression functional score (log10)? 0.32

Entry Q308Y has what SGCB cell-surface expression functional score (log10)? 0.02

Entry M22Q has what SGCB cell-surface expression functional score (log10)? 0.27

Entry Y184Q has what SGCB cell-surface expression functional score (log10)? -0.78

Entry S99C has what SGCB cell-surface expression functional score (log10)? -0.72

Entry A224S has what SGCB cell-surface expression functional score (log10)? 0.3

Entry A88I has what SGCB cell-surface expression functional score (log10)? 0.06

Entry I66W has what SGCB cell-surface expression functional score (log10)? 0.01

Entry E49W has what SGCB cell-surface expression functional score (log10)? 0.56

Entry N258R has what SGCB cell-surface expression functional score (log10)? 0.61

Entry H187P has what SGCB cell-surface expression functional score (log10)? -1.29

Entry N15R has what SGCB cell-surface expression functional score (log10)? 0.19

Entry L57V has what SGCB cell-surface expression functional score (log10)? 0.2

Entry L257T has what SGCB cell-surface expression functional score (log10)? -0.91

Entry N95H has what SGCB cell-surface expression functional score (log10)? -1.18

Entry G245K has what SGCB cell-surface expression functional score (log10)? 0.91

Entry I119R has what SGCB cell-surface expression functional score (log10)? -0.88

Entry D311A has what SGCB cell-surface expression functional score (log10)? 0.29

Entry G259K has what SGCB cell-surface expression functional score (log10)? -1.06

Entry N141Q has what SGCB cell-surface expression functional score (log10)? -0.08

Entry G306V has what SGCB cell-surface expression functional score (log10)? -0.76

Entry L287Y has what SGCB cell-surface expression functional score (log10)? -0.22

Entry P313H has what SGCB cell-surface expression functional score (log10)? -0.07

Entry I309G has what SGCB cell-surface expression functional score (log10)? -0.41

Entry T163M has what SGCB cell-surface expression functional score (log10)? -1.06

Entry F189I has what SGCB cell-surface expression functional score (log10)? -1.15

Entry S14R has what SGCB cell-surface expression functional score (log10)? 0.04

Entry P94E has what SGCB cell-surface expression functional score (log10)? -0.29

Entry L277R has what SGCB cell-surface expression functional score (log10)? -0.27

Entry Q112E has what SGCB cell-surface expression functional score (log10)? -0.38

Entry L122K has what SGCB cell-surface expression functional score (log10)? -0.12

Entry G293C has what SGCB cell-surface expression functional score (log10)? 0.03

Entry T294D has what SGCB cell-surface expression functional score (log10)? 0.14

Entry G244D has what SGCB cell-surface expression functional score (log10)? 0.99

Entry I255K has what SGCB cell-surface expression functional score (log10)? -0.13

Entry R223E has what SGCB cell-surface expression functional score (log10)? 0.43

Entry R60A has what SGCB cell-surface expression functional score (log10)? -0.28

Entry Q276H has what SGCB cell-surface expression functional score (log10)? -0.07

Entry I86C has what SGCB cell-surface expression functional score (log10)? -0.24
